System: human Factor 7 mRNA
measurement notes: Antisense inhibition of human Factor 7 mRNA in HepB3 cells, lipofectin, 50 nM, real-time RT-PCR
Assay type: cell-based
run conditions: HepB3 cells; gapmers (5-10-5, 3-14-3, 2-13-5 MOE) targeted to nucleobases 4868 to 4899 of SEQ ID NO: 1
In the oligonucleotide strings, read from the 5' end, every base follows the letter of its sugar. An asterisk marks phosphorothioate; unmarked linkages are phosphodiester. Other units and linkages are bracketed, terminal groups are in braces. A string of capitals states the bases alone. e = 2'-O-(2-methoxyethyl) (MOE); [5mC] = 5-methylcytosine; d = 2'-deoxy (DNA)
endpoint: % Inhibition of human Factor 7 mRNA levels (%)
Provide only the numeric value, understood in %.

Solved entries:
422295 (antisense e[5mC]*eG*dA*dG*dT*dT*d[5mC]*dT*dG*d[5mC]*dA*dG*dG*dA*dG*e[5mC]*eG*eG*e[5mC]*e[5mC]) [compound 422295]    74
422292 (antisense eG*eT*dT*d[5mC]*dT*dG*d[5mC]*dA*dG*dG*dA*dG*d[5mC]*dG*dG*e[5mC]*e[5mC]*eT*eA*eA) [compound 422292]    75
422224 (antisense eG*eG*eA*dG*d[5mC]*d[5mC]*d[5mC]*dG*dA*dG*dT*dT*d[5mC]*dT*dG*d[5mC]*dA*eG*eG*eA) [compound 422224]    62

Prompt line: Give the measured % Inhibition of human Factor 7 mRNA levels of 422297 (antisense e[5mC]*e[5mC]*d[5mC]*dG*dA*dG*dT*dT*d[5mC]*dT*dG*d[5mC]*dA*dG*dG*eA*eG*e[5mC]*eG*eG) [compound 422297] .
Response line: 63

Prompt line: Same question, 422290 (antisense eT*e[5mC]*dT*dG*d[5mC]*dA*dG*dG*dA*dG*d[5mC]*dG*dG*d[5mC]*d[5mC]*eT*eA*eA*eA*eT) [compound 422290] this time
Response line: 50
